Hey, just so you know, these numbers are from patent US10072006B2.

This listing pairs compounds with measured MIC, combination of CAZ and compounds of the invention.
Tested on: P. aeruginosa CIP105250 (OXA-15)
Experiment: MIC of compounds and synergy with ceftazidime (broth microdilution)
Assay type: cell-based
Settings: MIC of ceftazidime with compound fixed at 4 μg/mL; strain CIP105250 (P. aeruginosa)
property: MIC, combination of CAZ and compounds of the invention (µg/mL)

>>> recorded_result("N=C(N)NC[C@@H]1C(c2nccs2)=C[C@@H]2CN1C(=O)N2OS(=O)(=O)O [Example 7]")
32
>>> recorded_result("Cn1cc(C2=C[C@@H](CN)N3C[C@@H]2N(OS(=O)(=O)O)C3=O)cnc1=O (relative stereo) [Example 6]")
64
>>> recorded_result("NC[C@@H]1C=C(c2cnco2)[C@@H]2CN1C(=O)N2OC(F)(F)C(=O)O (relative stereo) [Example 3]")
8
